study target: P3Z chimeric PD-1 receptor (human)
Sequence (chain, as listed by the source mutant limits assumed): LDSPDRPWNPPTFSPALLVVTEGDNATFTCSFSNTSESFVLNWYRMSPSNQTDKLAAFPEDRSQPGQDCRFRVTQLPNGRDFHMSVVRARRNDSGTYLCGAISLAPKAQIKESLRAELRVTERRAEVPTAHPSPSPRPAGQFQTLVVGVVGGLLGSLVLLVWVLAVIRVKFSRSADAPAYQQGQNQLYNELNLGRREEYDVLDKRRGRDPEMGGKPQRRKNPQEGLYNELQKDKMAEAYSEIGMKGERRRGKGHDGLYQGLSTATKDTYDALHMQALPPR
measurement description: cell-based or functional assay
measurement type: IL-2 release in HuT78/P3Z, Max inhibition (%)
Answers are plain numbers, in %.

Solved cases (2 shown):
Qu. // IL-2 release in HuT78/P3Z, Max inhibition lookup, key: hu326-2 A16E (antibody, V domains shown, mAb; constant regions not restated (hu326-1 is IgG2 / kappa); Back mutation to murine) VH: QVQLVQSGSELKKPGESVKVSCKASGYTFTNYGMNWVRQAPGQGLEWMGWINNNNGEPTYAQGFRGRFVFSLDTSASTAYLQISSLKTEDTAVYFCARDVMDYWGQGTTVTVSS VL: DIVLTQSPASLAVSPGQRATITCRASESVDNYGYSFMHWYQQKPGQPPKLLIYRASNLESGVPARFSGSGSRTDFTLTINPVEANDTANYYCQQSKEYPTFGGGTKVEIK
Ans. 96.3

Qu. Repeat with hu326-2 S84N (antibody, V domains shown, mAb; constant regions not restated (hu326-1 is IgG2 / kappa); Back mutation to murine) VH: QVQLVQSGSELKKPGASVKVSCKASGYTFTNYGMNWVRQAPGQGLEWMGWINNNNGEPTYAQGFRGRFVFSLDTSASTAYLQINSLKTEDTAVYFCARDVMDYWGQGTTVTVSS VL: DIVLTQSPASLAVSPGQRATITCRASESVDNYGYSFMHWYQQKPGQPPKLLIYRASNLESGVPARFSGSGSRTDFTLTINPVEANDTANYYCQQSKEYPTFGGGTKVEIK
Ans. 96.5

Go through the list and state IL-2 release in HuT78/P3Z, Max inhibition for each entry.
1. hu326-2 T88N (antibody, V domains shown, mAb; constant regions not restated (hu326-1 is IgG2 / kappa); Back mutation to murine) VH: QVQLVQSGSELKKPGASVKVSCKASGYTFTNYGMNWVRQAPGQGLEWMGWINNNNGEPTYAQGFRGRFVFSLDTSASTAYLQISSLKNEDTAVYFCARDVMDYWGQGTTVTVSS VL: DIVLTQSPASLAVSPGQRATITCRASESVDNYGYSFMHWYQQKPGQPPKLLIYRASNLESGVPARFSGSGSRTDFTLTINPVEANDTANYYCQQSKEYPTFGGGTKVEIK
2. hu326-2 A76V (antibody, V domains shown, mAb; constant regions not restated (hu326-1 is IgG2 / kappa); Forward mutation to human) VH: QVQLVQSGSELKKPGASVKVSCKASGYTFTNYGMNWVRQAPGQGLEWMGWINNNNGEPTYAQGFRGRFVFSLDTSVSTAYLQISSLKTEDTAVYFCARDVMDYWGQGTTVTVSS VL: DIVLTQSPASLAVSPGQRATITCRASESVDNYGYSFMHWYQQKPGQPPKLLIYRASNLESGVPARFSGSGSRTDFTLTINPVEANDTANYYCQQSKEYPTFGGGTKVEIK

Ans.
[95.8, 96.7]

Qu. // IL-2 release in HuT78/P3Z, Max inhibition lookup, key: hu326-2 S9P (antibody, V domains shown, mAb; constant regions not restated (hu326-1 is IgG2 / kappa); Back mutation to murine) VH: QVQLVQSGPELKKPGASVKVSCKASGYTFTNYGMNWVRQAPGQGLEWMGWINNNNGEPTYAQGFRGRFVFSLDTSASTAYLQISSLKTEDTAVYFCARDVMDYWGQGTTVTVSS VL: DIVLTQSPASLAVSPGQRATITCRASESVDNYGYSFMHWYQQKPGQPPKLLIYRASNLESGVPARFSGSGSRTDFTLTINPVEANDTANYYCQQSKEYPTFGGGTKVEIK
Ans. 96
